B1: library; a variant is named by its letters at N, in order (parent)
chain: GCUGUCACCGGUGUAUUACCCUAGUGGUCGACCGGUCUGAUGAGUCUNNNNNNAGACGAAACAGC

- Variants of: B1
- procedure-details: FACS-Seq fitted mean relative fluorescence mCherry/BFP without ligand (log10 relative fluorescence); ligand: hypoxanthine (xanthine aptamer); higher = higher reporter protein expression
- condition-parameters: HEK293T, ligand present: no
value-kind: FACS-Seq fitted mean (log10)
Give bare numbers.

Known results for variants:
UUCCCG	0.397
CUAAAC	0.407
UACUGU	0.399

Entry UAGGUG ; FACS-Seq fitted mean (log10) = 0.399
